Tested on: KM12 colon
Assay: NCI tumour cell line growth inhibition, 48 h
Readout kind: TGI

- Molecule: "N#CC1(C#N)NC(c2ccsc2)C(C#N)(C#N)NC1c1ccsc1 (stereo not given)"
  Measured result: "> 100 µM"
- Molecule: "CCO/N=[N+](\\[O-])N(CC)CC"
  Measured result: "> 100 µM"
- Molecule: "CC(C)C1CC(O)O[C@@H]([C@@H](C)[C@H]2CC(=O)[C@@H]3[C@@H]4[C@@H](O)[C@H](O)[C@H]5[C@@H](O)[C@H](O)CC[C@]5(C)[C@H]4CC[C@]23C)C1 (stereo not given in full)"
  Measured result: "> 100 µM"
- Molecule: "CCCCCCCCCCCCCC(=O)CBr"
  Measured result: "16.9 µM"
- Molecule: "CN(C)C(=S)N=Nc1c(O)[nH]c2ccccc12"
  Measured result: "12.9 µM"
- Molecule: "CN1CN(c2ccccc2)C2(CCN(CCc3csc4ccccc34)CC2)C1=O"
  Measured result: "25.9 µM"
- Molecule: "COc1cc[nH]c1/C=C1\\C(=O)Nc2ccc(F)c(I)c21"
  Measured result: "> 25 µM"
- Molecule: "Cn1c(-c2cccs2)cc(-c2cccs2)c1-c1ccsc1"
  Measured result: "> 100 µM"
- Molecule: "NNC(=O)CCC(=O)NC1C2CC3CC(C2)CC1C3 (stereo not given)"
  Measured result: "> 100 µM"
- Molecule: "COc1ccc(C2S/C(=C\\c3ccc(O)cc3)C(=O)N2NC(=O)Cc2ccccc2)cc1 (stereo not given)"
  Measured result: "> 100 µM"
